system: GM-CSF production by Human Airway Smooth Muscle Cells; assay: Interleukin-1α-mediated GM-CSF production by HASM cells (ELISA); assay type: cell-based; details: inhibition of interleukin-1α (1 ng/ml)-mediated GM-CSF production; concentration not given; * not defined
property_name: HASM - GM-CSF
Output: the number by itself.

So what does the record say about HASM - GM-CSF for "COc1cc2c(cc1O)/C(=N/OCc1ccc(C(C)C)cc1)C[C@@H]1[C@@H]2CC[C@]2(C)/C(=N/O)CC[C@@H]12" ?
26

So what does the record say about HASM - GM-CSF for "CO/N=C1\CC[C@H]2[C@@H]3C/C(=N\OCc4cc(F)cc(F)c4)c4cc(O)c(OC)cc4[C@H]3CC[C@]12C" ?
11

So what does the record say about HASM - GM-CSF for "COc1cc2c(cc1O)/C(=N/OCc1ccc(OC(F)(F)F)cc1)C[C@@H]1[C@@H]2CC[C@]2(C)/C(=N/O)CC[C@@H]12" ?
8

So what does the record say about HASM - GM-CSF for COc1ccc(CON=C2CCC3C4CCc5cc(O)c(OC)cc5C4CCC23C)cc1 (stereo not drawn) ?
29

So what does the record say about HASM - GM-CSF for "COc1cc2c(cc1O)/C(=N/OCc1ccc(SC(F)(F)F)cc1)C[C@@H]1[C@@H]2CC[C@]2(C)[C@@H](O)CC[C@@H]12" ?
28

###

tested on: type II airway epithelial cell line, A549; test: Proliferation of A549 cells in response to 5% FCS; format: cell-based, human; conditions: Homo sapiens, A549; proliferation in response to 5% FCS; pIC50 of 4.00 = inactive; read-out: A549 PIC50 (converted)
Please note: IC50 exactly at 5 µM is 0 (no). Only values below 5 µM get 1 (yes).

Strictly below 5 µM in IC50? "COc1cc2c(cc1O)/C(=N/OCc1cccc([N+](=O)[O-])c1)C[C@@H]1[C@@H]2CC[C@]2(C)[C@@H](O)CC[C@@H]12"
0 (no)

Strictly below 5 µM in IC50? "COc1ccc(CO/N=C2\CC[C@H]3[C@@H]4CCc5cc(O)ccc5[C@H]4CC[C@]23C)cc1"
0 (no)

Strictly below 5 µM in IC50? "COc1cc2c(cc1O)/C(=N/OCc1ccc(C(C)C)cc1)C[C@@H]1[C@@H]2CC[C@]2(C)/C(=N/O)CC[C@@H]12"
1 (yes)

Strictly below 5 µM in IC50? "COc1ccc(CO/N=C2\C[C@@H]3[C@H](CC[C@]4(C)/C(=N/O)CC[C@@H]34)c3cc(OC)c(O)cc32)cc1"
0 (no)

Strictly below 5 µM in IC50? "COc1cc2c(cc1O)/C(=N/OCc1cc(F)cc(F)c1)C[C@@H]1[C@@H]2CC[C@]2(C)[C@@H](O)CC[C@@H]12"
1 (yes)

Strictly below 5 µM in IC50? COc1ccc(CON=C2CCC3C4CCc5cc(O)c(OC)cc5C4CCC23C)cc1 (stereo not drawn)
1 (yes)

Strictly below 5 µM in IC50? "COc1cc2c(cc1O)/C(=N/OCc1ccc([N+](=O)[O-])cc1)C[C@@H]1[C@@H]2CC[C@]2(C)[C@@H](OC(C)=O)CC[C@@H]12"
0 (no)
